Listing of entries alongside the reported IC50.
Test system: HT-29
Protocol summary: Cytotoxicity against human HT-29 cells after 48 hrs by MTT assay
Assay type: functional, cell-based
Condition context: HT-29, 48 h
Write the number in µM without appending the unit.

Examples from the recorded data:
>  <Mol>
COc1ccc(-c2nc(SCc3ccccc3)sc2-c2ccc([N+](=O)[O-])cc2)c(OC)c1OC

>  <IC50 (µM)>
33.8

$$$$
>  <Mol>
COc1ccc(-c2nc(SC)sc2-c2ccc([N+](=O)[O-])cc2)c(OC)c1OC

>  <IC50 (µM)>
45.3

$$$$

Now for the molecule whose IC50 we want.
Data request: Please report IC50 for the following molecule: COc1ccc(-c2nc(SCc3ccccc3)sc2-c2ccc(F)cc2)c(OC)c1OC
Data returned: 18.5
